Please provide measured MIC for the entries that follow.
# Tested on: S. pneumoniae 157
# Run Description: MIC, broth microdilution, S. pneumoniae 157
# Format: cell-based
# Condition Parameters: Mueller-Hinton broth, 37° C., 18 h
Just the number in µg/mL, nothing appended.

Return MIC for the following compound: CN(C)[C@@H]1C(O)=C(C(N)=O)C(=O)[C@@]2(O)C(O)=C3C(=O)c4c(O)ccc(-n5ccc(C=NO)c5)c4C[C@H]3C[C@@H]12 [Example 4]
0.03

Return MIC for the following compound: CN(C)[C@@H]1C(O)=C(C(N)=O)C(=O)[C@@]2(O)C(O)=C3C(=O)c4c(O)ccc(-n5ccc(C#N)c5)c4C[C@H]3C[C@@H]12 [Example 5]
0.015

Return MIC for the following compound: CN(C)[C@@H]1C(O)=C(C(N)=O)C(=O)[C@@]2(O)C(O)=C3C(=O)c4c(O)ccc(-n5ccc(C=O)c5)c4C[C@H]3C[C@@H]12 [Example 3]
0.015

Return MIC for the following compound: CON=Cc1ccn(-c2ccc(O)c3c2C[C@H]2C[C@H]4[C@H](N(C)C)C(O)=C(C(N)=O)C(=O)[C@@]4(O)C(O)=C2C3=O)c1 [Example 6]
0.06
